Biological target: T1, human GPVI (full-length) expressed on stably transfected rat basophilic RBL-2H3 cells (human, UniProt Q9HCN6 21-339)
T1 sequence (looked up): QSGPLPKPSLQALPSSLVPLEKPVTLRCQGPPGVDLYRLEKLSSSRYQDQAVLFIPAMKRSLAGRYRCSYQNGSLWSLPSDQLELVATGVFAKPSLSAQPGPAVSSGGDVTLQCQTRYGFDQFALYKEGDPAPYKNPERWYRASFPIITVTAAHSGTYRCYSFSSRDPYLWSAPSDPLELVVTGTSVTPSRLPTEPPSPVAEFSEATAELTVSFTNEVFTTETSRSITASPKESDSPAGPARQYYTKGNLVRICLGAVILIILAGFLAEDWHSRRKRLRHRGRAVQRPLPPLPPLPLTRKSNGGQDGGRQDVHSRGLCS
Experiment: cell-based or functional assay
readout: Cell adhesion assay Max. inhibition at 200 nM Fab [%], coated VitroCol

Query: # get_value(readout='Cell adhesion assay Max. inhibition at 200 nM Fab [%], coated VitroCol', item= Reference Control Antibody RefFab #1 (humanized GPVI antibody of WO2011073954A2, SANOFI) (Fab, V domains shown, Cloned into mammalian Fab expression vectors; a glycine-serine linker (G4S)2 was added to the C-terminus of the Fab heavy chain) VH: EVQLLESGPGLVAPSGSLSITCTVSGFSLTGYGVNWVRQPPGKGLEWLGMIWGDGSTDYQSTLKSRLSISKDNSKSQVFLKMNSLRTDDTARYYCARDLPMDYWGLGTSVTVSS VL: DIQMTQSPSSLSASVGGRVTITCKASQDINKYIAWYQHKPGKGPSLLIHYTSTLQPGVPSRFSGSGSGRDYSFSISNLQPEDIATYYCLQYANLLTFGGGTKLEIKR )
Response: 92%
